B1: GLTSCR2 (parent)
chain: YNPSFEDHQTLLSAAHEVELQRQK

Variants of: B1
Test: protein stability index of a GFP-peptide fusion (GPS, HEK-293T) (PSI 1-6); higher = more stable;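 also: lentivirally expressed fusions sorted by FACS into six bins by GFP to DsRed ratio, PSI derived from sequencing read proportions per bin multiplied by bin number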
Details: c terminus: a fixed tail appended
Attribute Measured: protein stability index

Recorded protein stability index of `H16K` , please. 3.51

# protein stability index lookup, item `A14R` 3.48

May I ask what protein stability index has been recorded for `D7Q` ? 4.27

Recorded protein stability index of `T10S` , please. 3.94

Tell me the measured protein stability index of `E6I` , please. 3.12

Given the variant `H8L` , what is its reported protein stability index? 2.22

Which protein stability index value belongs to `F5I` ? 4.07

What value of protein stability index has been reported for the following variant? `D7V` 2.92

Would you mind telling me what protein stability index value was observed for `L20Q` ? 3.87

Dear colleague, I am looking for the recorded protein stability index of the following variant: `Q21D` 4.16

What measured protein stability index goes with `E19S` ? 3.39
